Known melting point of a selection of molecules

Here are 3 molecules together with their reported answers.
> print(dat)
                                   molecule       endpoint           result
1  CC1(Cn2nc(C=Cc3ccc(Cl)cc3)oc2=O)Cn2cc([N+](=O)[O-])nc2O1 (stereo not drawn)  melting point    249 to 252 °C
2  O=c1oc(-c2ccc(OC(F)(F)F)cc2)nn1CC1Cn2cc([N+](=O)[O-])nc2O1 (stereo not drawn)  melting point    204 to 207 °C
3  COc1ccc(CN2CCN(CC3(C)Cn4cc([N+](=O)[O-])nc4O3)C2=O)c(OC)c1 (stereo not drawn)  melting point  175 to 175.4 °C

Query block: Give the measured melting point for CC1(COc2ccc(N3CCN(Cc4ccc(C(F)(F)F)cc4)CC3)cc2)Cn2cc([N+](=O)[O-])nc2O1 (stereo not drawn)
Result block: 171.8 to 173.1 °C

Query block: Give the measured melting point for CC(C)OC(=O)N1CCN(CC2(C)Cn3cc([N+](=O)[O-])nc3O2)CC1 (stereo not drawn)
Result block: 158.3 to 159.8 °C

Query block: Give the measured melting point for C[C@]1(CN2CCC(OCC=Cc3ccc(Cl)cc3)CC2)Cn2cc([N+](=O)[O-])nc2O1
Result block: 140.6 to 142.8 °C

Query block: Give the measured melting point for C[C@]1(CN2CCc3ccccc3C2)Cn2cc([N+](=O)[O-])nc2O1
Result block: 153 to 155.3 °C

Query block: Give the measured melting point for CC1(COC(=O)Nc2ccc(Cl)cc2)Cn2cc([N+](=O)[O-])nc2O1 (stereo not drawn)
Result block: 179 to 181 °C

Query block: Give the measured melting point for CC1(Cn2c(=O)oc3ccc(F)cc32)Cn2cc([N+](=O)[O-])nc2O1 (stereo not drawn)
Result block: 246.2 to 246.8 °C

----------
Endpoint: melting point

> print(dat)
                                   compound                    result
1  C[C@]1(CN2CCC(NC(=O)Nc3ccc(C(F)(F)F)cc3)CC2)Cn2cc([N+](=O)[O-])nc2O1         136.8 to 139.9 °C
2  C[C@]1(CN2CCN(N=Cc3ccc(C(F)(F)F)cc3)CC2)Cn2cc([N+](=O)[O-])nc2O1 [Example 504]    201 to 202.3 °C (dec.)
3  CN(C)c1ccc2c(c1)n(CC1(C)Cn3cc([N+](=O)[O-])nc3O1)c(=O)n2C (centres unmarked)  264.6 to 268.3 °C (dec.)
4  O=C(CN1CCN(c2nc3ccccc3o2)CC1)N1CCC2(CC1)Cn1cc([N+](=O)[O-])nc1O2      260 to 263 °C (dec.)
5  O=[N+]([O-])c1cn2c(n1)O[C@H](CN1CCN(Cc3ccc(C(F)(F)F)cc3)CC1)C2             141 to 143 °C
6  C[C@]1(CN2CCC(N3CCN(C(=O)c4ccc(OC(F)(F)F)cc4)CC3)CC2)Cn2cc([N+](=O)[O-])nc2O1             137 to 138 °C
7  C[C@]1(CN2CCN(C3CCN(Cc4ccc(Cl)cc4)CC3)CC2)Cn2cc([N+](=O)[O-])nc2O1             168 to 169 °C

Query block: Give the measured melting point for CCn1c(=O)n(CC2(C)Cn3cc([N+](=O)[O-])nc3O2)c2cc(Cl)ccc21 (centres unmarked)
Result block: 240.9 to 245.6 °C

----------
Endpoint: melting point

Here are 3 compounds together with their reported answers.
> print(dat)
                                   compound         result
1  CC1(CN2CCN(S(=O)(=O)Cc3ccc(Cl)cc3)CC2)Cn2cc([N+](=O)[O-])nc2O1 (stereo not shown)  215 to 217 °C
2  CN1C(=O)CCc2cc(COC(=O)N3CCN(C[C@@]4(C)Cn5cc([N+](=O)[O-])nc5O4)CC3)ccc21  189 to 190 °C
3  O=C(Nc1ccc(OC(F)(F)F)cc1)N1CCC2(CC1)Cn1cc([N+](=O)[O-])nc1O2  231 to 233 °C

Moving on to the next compound.
Query block: Give the measured melting point for O=[N+]([O-])c1cn2c(n1)O[C@@H](CN1CCN(c3ccc(F)cc3)CC1)C2
Result block: 178.5 to 179.5 °C

----------
Known melting point of a selection of compounds

> print(dat)
                                   compound                result
1  C[C@]1(CN2CCN(S(=O)(=O)CCCCc3ccc(Cl)cc3)CC2)Cn2cc([N+](=O)[O-])nc2O1         176 to 177 °C
2  CC1(CN2CCN(C(=S)Nc3ccc(Cl)cc3)CC2)Cn2cc([N+](=O)[O-])nc2O1 (stereo not shown)  204 to 206 °C (dec.)
3  CC(=O)N1CCC2(CC1)Cn1cc([N+](=O)[O-])nc1O2         232 to 234 °C
4  O=[N+]([O-])c1cn2c(n1)O[C@H](CN1CCN(Cc3ccc(-c4ccccc4)cc3)CC1)C2         224 to 225 °C

Query block: Give the measured melting point for CN(CC1(C)Cn2cc([N+](=O)[O-])nc2O1)C(=O)OCc1ccc(F)cc1 (stereo not shown)
Result block: 168.9 to 169.9 °C

Query block: Give the measured melting point for CN(C(=O)OC(C)(C)C)C1CCN(CC2(C)Cn3cc([N+](=O)[O-])nc3O2)CC1 (stereo not shown)
Result block: 198.8 to 201.1 °C

Query block: Give the measured melting point for CC1(CN2CCN(C(=O)NC3CCCCC3)CC2)Cn2cc([N+](=O)[O-])nc2O1 (stereo not shown)
Result block: 216.5 to 218.5 °C

Query block: Give the measured melting point for C[C@]1(COc2ccc(N3CCN(C(=O)OCc4ccc(Cl)cc4)CC3)cc2)Cn2cc([N+](=O)[O-])nc2O1
Result block: 184.5 to 187.5 °C

Query block: Give the measured melting point for CC(C)(C)OC(=O)N1CCN(c2ccc(OCC3(C)Cn4cc([N+](=O)[O-])nc4O3)cc2)CC1 (stereo not shown)
Result block: 212 to 214.5 °C

Query block: Give the measured melting point for CC1(Cn2c(=O)n(-c3ccc(F)cc3)c3ccccc32)Cn2cc([N+](=O)[O-])nc2O1 (stereo not shown)
Result block: 254.1 to 254.7 °C

----------
Known melting point of a selection of compounds

Here are 2 compounds together with their reported answers.
> print(dat)
                                   compound         result
1  O=C(NCc1ccc(C(F)(F)F)cc1)N1CCC2(CC1)Cn1cc([N+](=O)[O-])nc1O2  215 to 217 °C
2  CC1(CN2CCN(c3ccc(C(F)(F)F)cc3)CC2)Cn2cc([N+](=O)[O-])nc2O1 (stereo not shown)  159 to 160 °C

Query block: Give the measured melting point for C[C@]1(CN2CCN(S(=O)(=O)c3ccc(Cl)cc3)CC2)Cn2cc([N+](=O)[O-])nc2O1
Result block: 216 to 218 °C

Query block: Give the measured melting point for CC1(Cn2nc(-c3ccc(C(F)(F)F)cc3)oc2=O)Cn2cc([N+](=O)[O-])nc2O1 (stereo not shown)
Result block: 230 to 231 °C

Query block: Give the measured melting point for C[C@]1(CN2CCN(C3CCN(C(=O)c4ccc(OC(F)(F)F)cc4)CC3)CC2)Cn2cc([N+](=O)[O-])nc2O1
Result block: 133 to 134 °C

Query block: Give the measured melting point for C[C@]1(CN2CCN(C(=O)OCC=Cc3ccc(OC(F)(F)F)cc3)CC2)Cn2cc([N+](=O)[O-])nc2O1
Result block: 91 to 93 °C

Query block: Give the measured melting point for CC(C)(C)OC(=O)N1CCN(C2CCN(C[C@@]3(C)Cn4cc([N+](=O)[O-])nc4O3)CC2)CC1
Result block: 184 to 185 °C

Query block: Give the measured melting point for Cn1c(=O)n(CC2(C)Cn3cc([N+](=O)[O-])nc3O2)c2cc(C(F)(F)F)ccc21 (stereo not shown)
Result block: 232.4 to 234.7 °C

Query block: Give the measured melting point for O=C(Nc1ccccc1)N1CCC2(CC1)Cn1cc([N+](=O)[O-])nc1O2
Result block: 229 to 232 °C (dec.)

Query block: Give the measured melting point for C[C@]1(CN2CCN(C3CCN(c4ccc(OC(F)(F)F)cc4)CC3)CC2)Cn2cc([N+](=O)[O-])nc2O1
Result block: 180 to 181.5 °C

----------
Endpoint: melting point

Here are 3 compounds together with their reported answers.
> print(dat)
                                   compound       endpoint         result
1  C[C@]1(COC(=O)N2CCCc3cc(Cl)ccc32)Cn2cc([N+](=O)[O-])nc2O1  melting point  172 to 174 °C
2  CN(Cc1ccc(N(C)C)cc1)C[C@@]1(C)Cn2cc([N+](=O)[O-])nc2O1  melting point  168 to 169 °C
3  C[C@]1(COC(=O)N(c2ccc(Cl)cc2)C2CCCCC2)Cn2cc([N+](=O)[O-])nc2O1  melting point  175 to 177 °C

Query block: Give the measured melting point for O=C(NCC1Cn2cc([N+](=O)[O-])nc2O1)OCc1ccc(Cl)cc1 (centres unmarked)
Result block: 182.6 to 182.9 °C

Query block: Give the measured melting point for COc1ccc(NC(=O)N2CCN(C[C@@]3(C)Cn4cc([N+](=O)[O-])nc4O3)CC2)cc1
Result block: 185.5 to 187.5 °C

Query block: Give the measured melting point for CNCC1(C)Cn2cc([N+](=O)[O-])nc2O1.O=C(O)C(F)(F)F (centres unmarked)
Result block: 176.2 to 178.8 °C

Query block: Give the measured melting point for CN(C(=O)OC[C@@]1(C)Cn2cc([N+](=O)[O-])nc2O1)c1ccc(Cl)cc1
Result block: 131 to 133 °C

Query block: Give the measured melting point for C[C@]1(CN2CCC(N3CCN(C(=O)c4ccc(Cl)cc4)CC3)CC2)Cn2cc([N+](=O)[O-])nc2O1
Result block: 174 to 175 °C
